Substrate: ICOS (Homo sapiens (Human)) (UniProt Q9Y6W8)
Sequence (Q9Y6W8 21-199 limits assumed): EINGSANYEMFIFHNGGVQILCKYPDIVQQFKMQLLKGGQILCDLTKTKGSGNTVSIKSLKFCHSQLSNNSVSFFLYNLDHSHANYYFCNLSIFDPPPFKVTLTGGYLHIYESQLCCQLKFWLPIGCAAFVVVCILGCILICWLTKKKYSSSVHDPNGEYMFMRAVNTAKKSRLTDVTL
TEST: flow cytometry, transfected cells
Recorded MFI by entry
Express it in MFI; write the number only.

Illustrative cases are given below, each with its answer.
{"BINDER": "ICOSL-Fc N52S/N57M/Q100S (Fc fusion) DTQEKEVRAMVGSDVELSCACPEGSRFDLNDVYVYWQTSESKTVVTYHIPQSSSLEMVDSRYRNRALMSPAGMLRGDFSLRLFNVTPQDEQKFHCLVLSSSLGFQEVLSVEVTLHVAANFSVPVVSAPHSPSQDELTFTCTSINGYPRPNVYWINKTDNSLLDQALQNDTVFLNMRGLYDVVSVLRIARTPSVNIGCCIENVLLQQNLTVGSQTGNDIGERDKITENPVSTGEKNAAT", "RESULT TYPE": "MFI", "READING UNIT": "MFI", "MEASURED NUMBER": 312000}
{"BINDER": "ICOSL-Fc N52K/N57Y/Q100R (Fc fusion) DTQEKEVRAMVGSDVELSCACPEGSRFDLNDVYVYWQTSESKTVVTYHIPQKSSLEYVDSRYRNRALMSPAGMLRGDFSLRLFNVTPQDEQKFHCLVLSRSLGFQEVLSVEVTLHVAANFSVPVVSAPHSPSQDELTFTCTSINGYPRPNVYWINKTDNSLLDQALQNDTVFLNMRGLYDVVSVLRIARTPSVNIGCCIENVLLQQNLTVGSQTGNDIGERDKITENPVSTGEKNAAT", "RESULT TYPE": "MFI", "READING UNIT": "MFI", "MEASURED NUMBER": 199000}
{"BINDER": "ICOSL-Fc N52V/N57T/Q100L (Fc fusion) DTQEKEVRAMVGSDVELSCACPEGSRFDLNDVYVYWQTSESKTVVTYHIPQVSSLETVDSRYRNRALMSPAGMLRGDFSLRLFNVTPQDEQKFHCLVLSLSLGFQEVLSVEVTLHVAANFSVPVVSAPHSPSQDELTFTCTSINGYPRPNVYWINKTDNSLLDQALQNDTVFLNMRGLYDVVSVLRIARTPSVNIGCCIENVLLQQNLTVGSQTGNDIGERDKITENPVSTGEKNAAT", "RESULT TYPE": "MFI", "READING UNIT": "MFI", "MEASURED NUMBER": 29200}
{"BINDER": "ICOSL-Fc N52L/N57V (Fc fusion) DTQEKEVRAMVGSDVELSCACPEGSRFDLNDVYVYWQTSESKTVVTYHIPQLSSLEVVDSRYRNRALMSPAGMLRGDFSLRLFNVTPQDEQKFHCLVLSQSLGFQEVLSVEVTLHVAANFSVPVVSAPHSPSQDELTFTCTSINGYPRPNVYWINKTDNSLLDQALQNDTVFLNMRGLYDVVSVLRIARTPSVNIGCCIENVLLQQNLTVGSQTGNDIGERDKITENPVSTGEKNAAT", "RESULT TYPE": "MFI", "READING UNIT": "MFI", "MEASURED NUMBER": 257000}
{"BINDER": "ICOSL-Fc N52L/N57H/Q100R (Fc fusion) DTQEKEVRAMVGSDVELSCACPEGSRFDLNDVYVYWQTSESKTVVTYHIPQLSSLEHVDSRYRNRALMSPAGMLRGDFSLRLFNVTPQDEQKFHCLVLSRSLGFQEVLSVEVTLHVAANFSVPVVSAPHSPSQDELTFTCTSINGYPRPNVYWINKTDNSLLDQALQNDTVFLNMRGLYDVVSVLRIARTPSVNIGCCIENVLLQQNLTVGSQTGNDIGERDKITENPVSTGEKNAAT", "RESULT TYPE": "MFI", "READING UNIT": "MFI", "MEASURED NUMBER": 250000}
{"BINDER": "ICOSL-Fc N52Q/N57S/Q100A (Fc fusion) DTQEKEVRAMVGSDVELSCACPEGSRFDLNDVYVYWQTSESKTVVTYHIPQQSSLESVDSRYRNRALMSPAGMLRGDFSLRLFNVTPQDEQKFHCLVLSASLGFQEVLSVEVTLHVAANFSVPVVSAPHSPSQDELTFTCTSINGYPRPNVYWINKTDNSLLDQALQNDTVFLNMRGLYDVVSVLRIARTPSVNIGCCIENVLLQQNLTVGSQTGNDIGERDKITENPVSTGEKNAAT", "RESULT TYPE": "MFI", "READING UNIT": "MFI", "MEASURED NUMBER": 263000}
{"BINDER": "ICOSL-Fc N52S/N57H/Q100E (Fc fusion) DTQEKEVRAMVGSDVELSCACPEGSRFDLNDVYVYWQTSESKTVVTYHIPQSSSLEHVDSRYRNRALMSPAGMLRGDFSLRLFNVTPQDEQKFHCLVLSESLGFQEVLSVEVTLHVAANFSVPVVSAPHSPSQDELTFTCTSINGYPRPNVYWINKTDNSLLDQALQNDTVFLNMRGLYDVVSVLRIARTPSVNIGCCIENVLLQQNLTVGSQTGNDIGERDKITENPVSTGEKNAAT", "RESULT TYPE": "MFI", "READING UNIT": "MFI", "MEASURED NUMBER": 258000}
{"BINDER": "ICOSL-Fc N52P/N57S/Q100G (Fc fusion) DTQEKEVRAMVGSDVELSCACPEGSRFDLNDVYVYWQTSESKTVVTYHIPQPSSLESVDSRYRNRALMSPAGMLRGDFSLRLFNVTPQDEQKFHCLVLSGSLGFQEVLSVEVTLHVAANFSVPVVSAPHSPSQDELTFTCTSINGYPRPNVYWINKTDNSLLDQALQNDTVFLNMRGLYDVVSVLRIARTPSVNIGCCIENVLLQQNLTVGSQTGNDIGERDKITENPVSTGEKNAAT", "RESULT TYPE": "MFI", "READING UNIT": "MFI", "MEASURED NUMBER": 143000}
{"BINDER": "ICOSL-Fc N52A/N57Y/Q100A (Fc fusion) DTQEKEVRAMVGSDVELSCACPEGSRFDLNDVYVYWQTSESKTVVTYHIPQASSLEYVDSRYRNRALMSPAGMLRGDFSLRLFNVTPQDEQKFHCLVLSASLGFQEVLSVEVTLHVAANFSVPVVSAPHSPSQDELTFTCTSINGYPRPNVYWINKTDNSLLDQALQNDTVFLNMRGLYDVVSVLRIARTPSVNIGCCIENVLLQQNLTVGSQTGNDIGERDKITENPVSTGEKNAAT", "RESULT TYPE": "MFI", "READING UNIT": "MFI", "MEASURED NUMBER": 261000}

Could you now look at the following binder, please?
The recorded MFI for entry ICOSL-Fc N57Q/Q100P (Fc fusion) DTQEKEVRAMVGSDVELSCACPEGSRFDLNDVYVYWQTSESKTVVTYHIPQNSSLEQVDSRYRNRALMSPAGMLRGDFSLRLFNVTPQDEQKFHCLVLSPSLGFQEVLSVEVTLHVAANFSVPVVSAPHSPSQDELTFTCTSINGYPRPNVYWINKTDNSLLDQALQNDTVFLNMRGLYDVVSVLRIARTPSVNIGCCIENVLLQQNLTVGSQTGNDIGERDKITENPVSTGEKNAAT equals 205000

Source: patent US20250163127A1
